Assay: Displacement of [125I]Tyr14-NC/OFQ from human ORL1 expressed in CHO cells
Format: cell-based
Conditions: read-out: I50
pIC50: −log10 of the molar value.
measured_quantity: pIC50

>  <structure_notation>
CC(=O)Nc1cccnc1-n1cc(CN2CCC3(CC2)OCc2ccccc23)c(C)n1

>  <pIC50>
7.57

$$$$
>  <structure_notation>
Cc1cccnc1-n1cc(CN2CCC3(CC2)OCc2ccccc23)c(C)n1

>  <pIC50>
8.59

$$$$
>  <structure_notation>
Cc1c(CN2CCC3(CC2)OCc2ccccc23)cnn1-c1ccccc1

>  <pIC50>
7.00

$$$$
>  <structure_notation>
Cc1nn(-c2ccccc2)c(C)c1CN1CCC2(CC1)OCc1ccccc12

>  <pIC50>
7.89

$$$$
>  <structure_notation>
c1ccc(-n2cc(CN3CCC4(CC3)OCc3ccccc34)nn2)cc1

>  <pIC50>
6.72

$$$$

(P) Cc1nn(-c2cccnc2)cc1CN1CCC2(CC1)OCc1ccccc12
(Q) Cc1nn(-c2ccccc2)cc1CN1CCC2(CC1)OCc1ccccc12
Which numeric pIC50 is bigger, that of P or that of Q ? Your answer should be the label of the entry you select.
Q
